# Tested target: MKP5 (Homo sapiens)
# Sequence (Q9Y6W6 1-482): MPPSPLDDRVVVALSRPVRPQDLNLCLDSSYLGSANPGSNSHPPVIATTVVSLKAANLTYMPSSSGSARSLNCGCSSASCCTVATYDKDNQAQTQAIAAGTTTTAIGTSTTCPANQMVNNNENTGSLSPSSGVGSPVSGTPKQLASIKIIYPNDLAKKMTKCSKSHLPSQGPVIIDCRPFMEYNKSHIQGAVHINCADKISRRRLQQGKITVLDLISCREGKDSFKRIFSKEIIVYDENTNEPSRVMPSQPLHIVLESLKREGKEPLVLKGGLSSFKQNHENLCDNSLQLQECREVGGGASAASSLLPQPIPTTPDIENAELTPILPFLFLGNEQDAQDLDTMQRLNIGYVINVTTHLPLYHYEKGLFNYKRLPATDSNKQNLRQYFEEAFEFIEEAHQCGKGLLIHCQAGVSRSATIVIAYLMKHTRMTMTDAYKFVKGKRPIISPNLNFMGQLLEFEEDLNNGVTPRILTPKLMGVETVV
pIC50: −log10 of the molar value.
Measurement name: pIC50

Task item: Name the recorded pIC50 of the molecule listed here: "CSc1scc2c1-c1nc(SCC(=O)C(C)(C)C)ncc1CC2"
Reply: ~4.92

Values were extracted from patent US20240335445A1.
